# PROTOCOL TEXT: Apparent permeability of the compound across apical to basolateral side in wild type MDCK cells at 10 uM
# Assay type: ADME, cell-based, Canis lupus familiaris
# CONDITION DESCRIPTION: dog
Below, each of the molecules is paired with its reported Papp A→B at 10 µM value.

SUBSTANCE SMILES: C=CC(=O)NCCCC[C@H](NC(=O)OCc1ccccc1)C(=O)N1CCN(c2ccccc2Cl)CC1
Papp A→B at 10 µM / ×10⁻⁶ cm/s: 30.3

SUBSTANCE SMILES: C=CC(=O)NCCCC[C@H](NC(=O)Cc1ccccc1)C(=O)N1CCN(c2cccc(C)n2)CC1
Papp A→B at 10 µM / ×10⁻⁶ cm/s: 14.2
